B1: CPEB3 Ribozyme (parent)
chain: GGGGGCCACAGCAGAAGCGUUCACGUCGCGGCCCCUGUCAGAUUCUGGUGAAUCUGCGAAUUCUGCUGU

- Variants of: B1
- assay details: self-cleavage, relative activity (ratio to wild type); higher = more cleavage; co-transcriptional
Where self-cleavage equals or exceeds 0.3, the correct label is 1; where it does not, the label is -1.

// query Please check the record G25C A40G and state if its self-cleavage is at or above 0.3.
// result -1

// query # repeat for G25A G41U
// result -1

// query Then this variant: U36A U46A
// result -1

// query Also C45A U62G , if possible.
// result 1

// query Entry to check: G19A G37U
// result -1

// query Now the variant G31C C54A
// result -1

// query G58U U62C , same question.
// result 1

// query Follow-up item: A16C U43A
// result -1

// query What would you report for A51U A59U ?
// result 1

// query Try this variant too: U36C A51U
// result 1

// query What do you get for G41C A59C ?
// result -1

// query // repeat for C18G C33A and report
// result -1

// query Moving on to the next variant: G11A C29U
// result -1

// query What do you have for G11A U61C ?
// result -1

// query Cool, now G11A G41A
// result -1

// query Same for U21G U43G
// result 1

// query Another variant to look at: G37C U61G
// result -1

// query Proceed to C57U U69A
// result 1

// query Record: A13G G50A
// result 1

// query What about this variant? C45U G47A
// result 1

// query Another variant: A13U C24U
// result 1

// query And then U49C U69A , what is it?
// result 1

// query Next variant up: C6A C57A
// result -1

// query Similarly, U49C A52C ?
// result 1

// query Queued: G11A G41U
// result 1

// query Also need G4U A13C , thanks.
// result 1

// query Same read-out for C6A G58U ?
// result 1

// query Entry to check: C18G G58U
// result -1

// query Would you mind doing C6U A40C as well?
// result 1

// query Can you handle G4U C35G next?
// result -1

// query Another variant to look at: G37A A40C
// result -1

// query Please answer likewise for U53A G65U
// result 1

// query Another variant: G11C A52U
// result 1

// query Let us now turn to G58C C63U
// result 1

// query Follow-up entry: C12G G58U
// result 1

// query Similarly, G58C U64A ?
// result 1

// query Moving on to G2U A10C
// result -1

// query How about U44C G68C ?
// result 1

// query What do we get for G30C G47U ?
// result 1

// query Check U38C G50A too.
// result 1

// query Same lookup for G48A U49C , please.
// result 1

// query Quick one: G19C A23U
// result -1

// query Do the same for G11U C29A please
// result -1

// query Further, for C54U A60U ?
// result 1

// query Could you do the same for C33G G58C , please?
// result 1

// query How about this variant: A59G U62C
// result 1

// query Try the variant G1A G30A
// result -1

// query For G25A C39A then?
// result -1

// query Please give the result for G47U A52U too.
// result 1

// query // query: G5U U67G
// result 1

// query What about C22U U62G ?
// result -1

// query Try G47C G50C next.
// result 1

// query // repeat for C22A and report
// result -1
